Source of measurements: ChEMBL document CHEMBL4513216

Test system: Plasmodium berghei
Assay: Screen against P. berghei liver stage (PbLuc), transformed with Luciferase, at 10uM
Type: functional, HepG2
Details: tested at 10 uM
In all, about 69,000 compounds went through this assay and about 8,600 (12%) showed an effect of 50% or more. The sample holds strong results, similar compounds and a random draw of the others, so the mix is not that of the screen.
INHIBITION vs 40%: at or above is met, below is not met.

Some entries whose results are on file:
Cc1ncc(S(C)(=O)=O)c(N(C)CCCc2cnn(C)c2)n1 = not met
Cn1ncc2c(NCCOc3ccc(F)cc3)nc(C3CCCC3)nc21 = met
CC(=O)N1CCN(c2ccnc(C)n2)CC(COc2ccccc2)C1 (stereo not given) = not met
CC(=O)N[C@@H]1CN(C(=O)CC2CCOCC2)C[C@H]1O = not met
Cc1ccccc1CN(C)CC(O)COCc1ccccc1Cl (stereo not given) = met
Cc1ccc(Cl)cc1N1CCN(CC(=O)NC(C)c2ccco2)CC1 (stereo not given) = not met

Could you verify whether the entry "CCOCCNc1nc(C2CCCC2)nc2c1cnn2C" shows INHIBITION of no less than 40%?
not met

Please give the result for "Cc1ccccc1N(CC(=O)NCCc1nnc2n1CCC2)S(C)(=O)=O" too.
not met

Please give the result for "CCn1c(C2CCNCC2)nn(Cc2ccc(C(=O)NC)o2)c1=O" too.
met

Please give the result for "COc1cc(N2CCC3(CCN(C(=O)c4cccnc4)CC3)C2)ncn1" too.
not met
